# systemTested: human IL-13 R130Q variant (R110Q of the mature chain) (human) (UniProt P35225)
# procedureText: direct binding ELISA, crude supernatant, relative to Lc16Hc7
Consider the following binders; for each one, report its Percent IL-13 R130Q (30 ng/ml) Binding.
Respond numerically; units are % and should not be typed.

// Percent IL-13 R130Q (30 ng/ml) Binding lookup, binder = Lc3Hc6 (antibody, human IgG1, V domains shown) VH: QVQLVESGGGVVQPGRSLRLSCAASGFSLSTYGMGVGWVRQAPGKGLEWVAHIWWDDVKRYNPALKSRFTISRDNSKNTLYLQMNSLRAEDTAVYYCARMGSDYDVWFDYWGQGTLVTVSS VL: AIQLTQSPSSLSASVGDRVTITCRASKSISKYLAWYQQKPGKAPKLLIYSGSTLQSGVPSRFSGSGSGTDFTLTISSLQPEDFATYYCQQHNEYPYTFGGGTKVEIK , result: 26.6

The recorded Percent IL-13 R130Q (30 ng/ml) Binding for Lc7Hc6 (antibody, human IgG1, V domains shown) VL: DIQLTQSPSSLSASVGDRVTITCRASKSISKYLAWYRQKPGKVPKLLIYSGSTLQSGVPSRFSGSGSGTDFTLTISSLQPEDVATYYGQQHNEYPYTFGQGTKLEIK VH: QVQLVESGGGVVQPGRSLRLSCAASGFSLSTYGMGVGWVRQAPGKGLEWVAHIWWDDVKRYNPALKSRFTISRDNSKNTLYLQMNSLRAEDTAVYYCARMGSDYDVWFDYWGQGTLVTVSS is -0.3

Measured Percent IL-13 R130Q (30 ng/ml) Binding, Lc7Hc1 (antibody, human IgG1, V domains shown) VL: DIQLTQSPSSLSASVGDRVTITCRASKSISKYLAWYRQKPGKVPKLLIYSGSTLQSGVPSRFSGSGSGTDFTLTISSLQPEDVATYYGQQHNEYPYTFGQGTKLEIK VH: QVTLKESGPALVKPTQTLTLTCTFSGFSLSTYGMGVGWIRQPPGKALEWLAHIWWDDVKRYNPALKSRLTISKDTSKNQVVLTMTNMDPVDTATYYCARMGSDYDVWFDYWGQGTLVTVSS : -1.4

Form: binder = Lc15Hc1 (antibody, human IgG1, V domains shown) VH: QVTLKESGPALVKPTQTLTLTCTFSGFSLSTYGMGVGWIRQPPGKALEWLAHIWWDDVKRYNPALKSRLTISKDTSKNQVVLTMTNMDPVDTATYYCARMGSDYDVWFDYWGQGTLVTVSS VL: VIWMTQSPSLLSASTGDRVTISCRASKSISKYLAWYQQKPGKAPELLIYSGSTLQSGVPSRFSGSGSGTDFTLTISCLQSEDFATYYCQQHNEYPYTFGGGTKVEIK ; Percent IL-13 R130Q (30 ng/ml) Binding = 76.2
